Target: Voltage-dependent T-type calcium channel subunit alpha-1H (Homo sapiens);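 note: channel activity triggered by adding a high calcium stimulation buffer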
Assay type: functional
The source made the active and inactive calls.
assay readout: EC50

1. CC(Sc1nnc(-c2cccs2)n1Cc1ccccc1)C(=O)NCc1ccc2c(c1)OCO2 (centres undefined) = 9.04 µM (active)
2. COc1ccc(CCNC(=O)C2CCCN(Cc3nc(-c4cccc(Cl)c4)oc3C)C2)cc1OC (centres undefined) = 5.34 µM (active)
3. Cc1ccc(C)c(N2CCN(C(c3ccc(N(C)C)cc3)c3nnnn3C(C)(C)C)CC2)c1 (centres undefined) = 4.2 µM (active)
4. CC(C(=O)N1c2ccccc2CCc2ccccc21)n1nnc(-c2ccc(N(C)C)cc2)n1 (centres undefined) = 4.2 µM (active)

----------
Listed here: items and their measured EC50.
Biological target: Short transient receptor potential channel 4 (Mus musculus, UniProt Q9QUQ5)
Sequence (Q9QUQ5 whole entry): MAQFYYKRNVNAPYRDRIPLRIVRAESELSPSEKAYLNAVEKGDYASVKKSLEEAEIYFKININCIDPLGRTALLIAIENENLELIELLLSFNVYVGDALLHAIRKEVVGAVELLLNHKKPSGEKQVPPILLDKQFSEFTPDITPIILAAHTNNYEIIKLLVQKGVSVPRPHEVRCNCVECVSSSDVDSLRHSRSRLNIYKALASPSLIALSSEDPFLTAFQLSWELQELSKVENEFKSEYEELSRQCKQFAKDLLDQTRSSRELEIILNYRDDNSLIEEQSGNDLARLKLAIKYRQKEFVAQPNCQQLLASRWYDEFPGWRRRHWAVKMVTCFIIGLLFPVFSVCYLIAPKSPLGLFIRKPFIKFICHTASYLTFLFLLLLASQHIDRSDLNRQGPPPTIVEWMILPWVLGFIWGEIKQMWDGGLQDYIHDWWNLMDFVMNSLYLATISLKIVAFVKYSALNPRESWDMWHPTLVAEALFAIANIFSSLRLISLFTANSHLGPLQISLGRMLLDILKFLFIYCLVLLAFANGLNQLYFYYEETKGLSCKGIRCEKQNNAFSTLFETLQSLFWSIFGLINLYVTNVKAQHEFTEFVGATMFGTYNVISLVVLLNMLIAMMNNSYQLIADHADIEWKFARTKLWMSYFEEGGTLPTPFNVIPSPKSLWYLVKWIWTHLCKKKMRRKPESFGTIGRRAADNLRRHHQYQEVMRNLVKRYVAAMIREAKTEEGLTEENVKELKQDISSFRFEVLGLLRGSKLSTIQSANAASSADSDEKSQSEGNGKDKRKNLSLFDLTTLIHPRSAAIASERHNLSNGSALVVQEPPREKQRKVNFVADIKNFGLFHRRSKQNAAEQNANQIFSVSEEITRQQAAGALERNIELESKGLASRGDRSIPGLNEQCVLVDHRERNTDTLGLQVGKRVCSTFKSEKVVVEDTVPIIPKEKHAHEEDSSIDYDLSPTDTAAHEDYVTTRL
Experiment: mouse TRPC4 channel activators, dose response, cell-based, HEK293 TRPC4/mu-opioid, Fluo-4 calcium (AID 434937)
Format: functional
Activity calls are given as the source filed them.
assay readout: EC50

1. OCCC1CN(Cc2ccccc2-c2ccco2)CCN1Cc1ccccc1 (stereo unspecified) = 5.31 µM (active)
2. Cc1cc(NC(=O)c2cnn3cccnc23)nn1CC(=O)Nc1cccnc1 = 4.22 µM (active)
3. CCOC(=O)C1(CC2CC2)CCN(Cc2ccc3cccc(F)c3n2)CC1 = 2.66 µM (active)
4. CN(C)CCCN(C(=O)c1ccc(S(=O)(=O)N(C)C2CCCCC2)cc1)c1nc2ccc(F)cc2s1.Cl = 1.88 µM (active)
5. Cc1cccc(OCCOCCN2CCNCC2)c1C = 1.19 µM (active)
6. Cc1ccc(S(=O)(=O)NC2=NC(=O)/C(=C\c3cc(Br)cc(Br)c3O)S2)cc1 = 10.6 µM (active)

----------
Test: Luminescence Cell-Based Dose Confirmation HTS to Identify Inhibitors of Platelet Dense Granule Release. [Related pubchem assays: 1663 (Primary HTS), 1678 (Summary of Project)]
Type: functional
Calls of active or inactive are those of the source.
assay readout: EC50

1) CNc1nc2c3ccccc3n(C(C)=O)c2s1 = > 112 µM (not active)
2) COCCNC(=O)/C(C#N)=C/c1ccc(O)cc1 = 1.62 µM (active)
3) CCn1c2ccccc2c2cc(NC(=O)CSc3nnc(-c4cccc(Cl)c4)o3)ccc21 = > 112 µM (not active)
4) CC(=O)Nc1ccc2nc(NC(=O)c3cccs3)sc2c1 = 6.27 µM (active)
5) CCc1nnc(NC(=O)[C@@H](NC(=O)c2cc(OC)cc(OC)c2)C(C)C)s1 = > 112 µM (not active)

----------
Biological target: SUMO-activating enzyme (Homo sapiens)
Assay: inhibitors of in vitro SUMOylation cascade, primary screen, biochemical, HTRF, uHTS (AID 2006)
Format: protein-complex assay
The source made the active and inactive calls.
assay readout: IC50

1) CN(C)c1cc(N/N=C/c2ccc(Cl)cc2)nc(N(C)C)n1 = 14.2 µM (active)
2) O=C(N/N=C/c1cc(Br)cc(Br)c1O)c1ccncc1 = 8.52 µM (active)
3) COc1cc(Br)c(C(=O)c2nccc3cc(OC)c(OC)cc23)cc1OC = 12.8 µM (active)
4) O=C1NC(=O)N(Cc2ccco2)C(=O)/C1=C\c1cccn1CCOc1ccc(Cl)cc1 = 35.7 µM (active)

----------
Target: 72 kDa type IV collagenase (Homo sapiens, UniProt P08253)
Sequence (P08253 whole entry): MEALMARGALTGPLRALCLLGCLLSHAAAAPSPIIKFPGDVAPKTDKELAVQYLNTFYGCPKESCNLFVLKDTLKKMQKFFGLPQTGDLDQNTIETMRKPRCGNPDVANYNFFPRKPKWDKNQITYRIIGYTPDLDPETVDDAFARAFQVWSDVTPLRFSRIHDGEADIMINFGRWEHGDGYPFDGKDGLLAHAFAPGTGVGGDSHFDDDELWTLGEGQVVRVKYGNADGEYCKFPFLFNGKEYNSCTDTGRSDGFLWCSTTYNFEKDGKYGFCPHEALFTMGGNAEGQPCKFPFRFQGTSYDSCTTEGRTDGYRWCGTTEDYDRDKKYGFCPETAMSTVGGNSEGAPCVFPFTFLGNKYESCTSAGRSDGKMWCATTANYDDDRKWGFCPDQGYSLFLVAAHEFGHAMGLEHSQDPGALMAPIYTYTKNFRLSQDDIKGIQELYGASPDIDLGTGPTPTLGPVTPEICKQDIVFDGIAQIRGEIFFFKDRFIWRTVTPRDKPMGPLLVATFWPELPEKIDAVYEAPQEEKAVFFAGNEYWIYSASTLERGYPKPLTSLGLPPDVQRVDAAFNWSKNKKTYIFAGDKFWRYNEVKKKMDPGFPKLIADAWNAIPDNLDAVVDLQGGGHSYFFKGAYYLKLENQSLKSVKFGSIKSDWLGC
Experiment: Dose Response validation of uHTS RPN11 inhibitor hits using a MMP-2 Fluorescence assay.
Format: functional
Active and inactive are the calls of the source.
Possible outcomes: active, inactive

1. CCN(CC)c1ccc(/C=N/NC(=O)c2cccc(S(=O)(=O)Nc3ccccc3OC)c2)cc1 = inactive
2. NC(=Nc1cccc2ccccc12)Nc1nc(O)c2c(n1)CCC2 = inactive
3. COc1cc(/C=C2/C(=O)NN(c3ccc(Cl)cc3)C2=O)cc(Br)c1O = active
4. O=C(NN1C(=O)/C(=C\c2ccc(O)c([N+](=O)[O-])c2)SC1=S)c1ccccc1Cl = active
5. N=C1/C(=C\c2ccc(-c3cccc(Cl)c3)o2)C(=O)N=C2SC=C(c3ccccc3)N12 = inactive

----------
Target: Peroxisome proliferator-activated receptor gamma/Nuclear receptor coactivator 2 (Homo sapiens, UniProt P37231);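 note: agonist potency for raising coactivator recruitment to the receptor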
Sequence (P37231 whole entry): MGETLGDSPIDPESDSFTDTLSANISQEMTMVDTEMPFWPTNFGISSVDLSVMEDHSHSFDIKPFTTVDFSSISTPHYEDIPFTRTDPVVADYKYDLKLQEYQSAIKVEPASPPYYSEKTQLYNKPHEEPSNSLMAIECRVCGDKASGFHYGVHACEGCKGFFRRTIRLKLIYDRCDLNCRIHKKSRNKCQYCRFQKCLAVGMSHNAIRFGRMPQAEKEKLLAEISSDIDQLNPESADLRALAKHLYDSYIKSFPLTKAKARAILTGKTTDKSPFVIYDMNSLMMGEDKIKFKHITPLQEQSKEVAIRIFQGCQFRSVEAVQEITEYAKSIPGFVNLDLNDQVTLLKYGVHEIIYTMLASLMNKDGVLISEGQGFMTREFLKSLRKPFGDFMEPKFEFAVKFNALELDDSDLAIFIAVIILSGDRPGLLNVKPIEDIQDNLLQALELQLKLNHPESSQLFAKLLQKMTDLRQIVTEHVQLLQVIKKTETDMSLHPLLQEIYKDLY
Sequence (Q15596 whole entry, further chain): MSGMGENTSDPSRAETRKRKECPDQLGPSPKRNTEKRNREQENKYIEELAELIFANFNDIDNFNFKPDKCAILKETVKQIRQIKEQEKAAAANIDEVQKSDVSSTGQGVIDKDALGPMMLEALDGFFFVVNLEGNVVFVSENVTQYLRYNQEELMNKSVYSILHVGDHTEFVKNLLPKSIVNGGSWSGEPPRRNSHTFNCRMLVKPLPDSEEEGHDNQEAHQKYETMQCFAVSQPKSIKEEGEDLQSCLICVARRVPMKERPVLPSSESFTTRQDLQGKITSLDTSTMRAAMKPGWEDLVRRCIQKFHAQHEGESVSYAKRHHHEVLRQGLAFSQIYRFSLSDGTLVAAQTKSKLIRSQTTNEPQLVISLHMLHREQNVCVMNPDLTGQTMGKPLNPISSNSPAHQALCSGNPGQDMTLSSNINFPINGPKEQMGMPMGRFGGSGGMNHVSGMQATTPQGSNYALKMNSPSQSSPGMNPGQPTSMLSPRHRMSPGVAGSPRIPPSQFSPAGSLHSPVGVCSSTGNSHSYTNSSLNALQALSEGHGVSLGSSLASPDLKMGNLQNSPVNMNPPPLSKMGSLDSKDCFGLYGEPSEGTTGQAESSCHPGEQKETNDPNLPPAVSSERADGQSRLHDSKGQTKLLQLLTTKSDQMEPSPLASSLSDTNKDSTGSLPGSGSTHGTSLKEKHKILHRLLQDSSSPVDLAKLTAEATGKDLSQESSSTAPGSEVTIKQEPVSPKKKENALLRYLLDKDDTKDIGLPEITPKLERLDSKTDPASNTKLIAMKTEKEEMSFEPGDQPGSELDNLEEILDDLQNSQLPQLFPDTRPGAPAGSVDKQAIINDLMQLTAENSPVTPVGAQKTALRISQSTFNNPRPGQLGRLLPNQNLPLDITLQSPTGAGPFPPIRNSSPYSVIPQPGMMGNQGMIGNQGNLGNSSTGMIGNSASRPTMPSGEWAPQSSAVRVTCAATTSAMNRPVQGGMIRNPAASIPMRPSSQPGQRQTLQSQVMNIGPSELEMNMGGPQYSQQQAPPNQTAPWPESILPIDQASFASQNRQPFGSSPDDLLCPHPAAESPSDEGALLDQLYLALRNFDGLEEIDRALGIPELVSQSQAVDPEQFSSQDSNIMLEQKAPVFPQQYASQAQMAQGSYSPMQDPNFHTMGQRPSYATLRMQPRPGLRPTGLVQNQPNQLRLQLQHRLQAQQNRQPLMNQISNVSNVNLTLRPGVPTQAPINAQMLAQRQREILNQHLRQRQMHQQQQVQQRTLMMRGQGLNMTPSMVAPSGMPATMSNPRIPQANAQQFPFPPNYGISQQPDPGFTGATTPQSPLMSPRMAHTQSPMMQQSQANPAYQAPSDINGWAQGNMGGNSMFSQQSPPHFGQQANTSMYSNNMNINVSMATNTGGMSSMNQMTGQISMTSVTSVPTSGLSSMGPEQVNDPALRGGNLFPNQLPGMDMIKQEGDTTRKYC
Type: functional
assay readout: EC50

1) COc1ccc(C2CC(=O)c3c([nH]c(C(=O)OC(C)C)c3C)C2)cc1OC (stereo unspecified) = > 79.4 µM (not active)
2) CCc1nnc(NC(=O)CSc2ncnc3c2oc2ccccc23)s1 = 18.3 µM (not active)
3) CCc1ccc(N2CSC3=C(C#N)C(c4cccs4)CC(=O)N3C2)cc1 (stereo unspecified) = 50.7 µM (not active)
4) Nc1nc(C2CCCN2S(=O)(=O)c2ccc(Cl)cc2)cs1 (stereo unspecified) = > 79.4 µM (not active)
5) CN(C)c1ccc(/N=C/C=C2\N(C)c3ccccc3C2(C)C)cc1 = > 79.4 µM (not active)
6) CCOC(=O)c1s/c(=N\C(=O)c2ccc(OC(C)C)cc2)n(C)c1C = 16.2 µM (not active)

----------
Biological target: Protein RecA (Mycobacterium tuberculosis, UniProt P9WHJ3)
Sequence (P9WHJ3 whole entry): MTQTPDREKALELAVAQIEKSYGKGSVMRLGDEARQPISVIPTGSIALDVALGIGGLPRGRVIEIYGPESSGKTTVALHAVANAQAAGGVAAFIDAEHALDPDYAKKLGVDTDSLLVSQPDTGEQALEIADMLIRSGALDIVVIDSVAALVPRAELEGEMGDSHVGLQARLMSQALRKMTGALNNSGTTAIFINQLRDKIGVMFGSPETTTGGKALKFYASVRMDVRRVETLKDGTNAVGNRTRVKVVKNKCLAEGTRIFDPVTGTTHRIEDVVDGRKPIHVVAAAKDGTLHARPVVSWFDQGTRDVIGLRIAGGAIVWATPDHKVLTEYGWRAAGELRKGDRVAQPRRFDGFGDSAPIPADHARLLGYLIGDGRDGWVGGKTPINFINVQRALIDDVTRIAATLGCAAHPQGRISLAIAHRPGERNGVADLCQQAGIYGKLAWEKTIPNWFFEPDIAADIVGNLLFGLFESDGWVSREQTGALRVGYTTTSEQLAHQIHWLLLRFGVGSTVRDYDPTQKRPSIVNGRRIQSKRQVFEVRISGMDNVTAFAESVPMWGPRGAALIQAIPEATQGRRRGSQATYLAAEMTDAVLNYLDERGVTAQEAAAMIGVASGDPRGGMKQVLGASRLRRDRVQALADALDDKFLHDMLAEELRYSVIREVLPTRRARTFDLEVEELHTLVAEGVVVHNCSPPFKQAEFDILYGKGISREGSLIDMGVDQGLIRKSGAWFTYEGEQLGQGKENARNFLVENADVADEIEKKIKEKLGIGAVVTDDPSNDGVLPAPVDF
Assay: Fluorescence Cell-Free Homogeneous Dose Retest to Identify Inhibitors of RecA-Intein Splicing Activity. [Related pubchem assays (depositor defined):AID2097, AID2223, AID489010, AID492950]
Type: functional
Active and inactive are the calls of the source.
Classes used: active, inactive

1) Fc1ccc(Nc2nc(NCc3ccco3)c3ccccc3n2)cc1 = active
2) O=[N+]([O-])c1ccc(N2CCOCC2)c2ccncc12 = active
3) CCCc1n[nH]c2c1C(c1ccc(OC(=O)N3CCOCC3)cc1)C(C#N)=C(N)O2 (stereo not drawn) = active
4) CCSc1cc(C2C(C#N)=C(N)Oc3[nH]nc(C)c32)c(C)o1 (stereo not drawn) = active
5) COc1ccc(/C=C/C(=O)c2ccccc2)cc1COc1ccc(F)cc1 = active
6) CC(Nc1c[nH]c(=O)[nH]c1=O)c1ccccc1 (stereo not drawn) = active
7) O=Cc1ccnc(-c2ccc(OC(=O)c3ccco3)cc2)n1 = active
8) COc1cc(-c2[nH]nc3c2C(c2ccco2)C(C#N)=C(N)O3)cc(OC)c1OC (stereo not drawn) = active
9) COc1ccc(C2NC(c3ccc(OC)cc3OC)C(C)C(=O)C2C)c(OC)c1 (stereo not drawn) = inactive
10) O=S(=O)(Nc1c(O)ccc2ccccc12)c1cccc2ccccc12 = active
11) COc1ccccc1-c1cc(C(F)(F)F)nc(S(=O)(=O)CCCC(=O)N2CCCCC2C)n1 (stereo not drawn) = active

----------
Each item that follows carries a reported EC50.
Biological target: Heat shock factor protein 1 (Mus musculus)
Sequence (P38532 whole entry): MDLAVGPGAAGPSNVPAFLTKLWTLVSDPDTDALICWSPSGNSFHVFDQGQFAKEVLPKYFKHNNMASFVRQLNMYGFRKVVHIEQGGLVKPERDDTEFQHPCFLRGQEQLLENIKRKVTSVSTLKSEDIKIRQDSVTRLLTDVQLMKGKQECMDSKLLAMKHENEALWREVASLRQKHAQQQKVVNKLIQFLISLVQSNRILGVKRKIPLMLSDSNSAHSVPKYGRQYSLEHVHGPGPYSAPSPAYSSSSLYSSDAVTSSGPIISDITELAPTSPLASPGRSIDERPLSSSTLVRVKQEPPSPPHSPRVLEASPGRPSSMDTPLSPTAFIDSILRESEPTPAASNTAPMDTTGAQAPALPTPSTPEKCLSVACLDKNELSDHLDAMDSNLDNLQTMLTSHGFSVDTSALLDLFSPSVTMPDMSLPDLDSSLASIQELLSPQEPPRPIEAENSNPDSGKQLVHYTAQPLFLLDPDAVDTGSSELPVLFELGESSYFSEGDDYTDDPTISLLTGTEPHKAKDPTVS
Experiment: inhibition of MG132-induced HSE-luciferase signal, confirmation, cell-based, NIH3T3, luminescence, dose retest (AID 2382);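 note: NIH3T3 fibroblasts with HSF1-driven luciferase reporter stressed by proteasome inhibitor MG132; luminescence from HSF1-driven luciferase expression after 8 hours of MG132 stress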
Format: functional
The source made the active and inactive calls.
assay readout: EC50

1) NNC(=O)c1nn(-c2ccc(Cl)cc2)cc1O = 27 µM (active)
2) CCOC(=O)c1ccc(Cl)c(NC(=O)c2cccnc2)c1 = 30.8 µM (active)
3) COc1ccc(NC(=O)C(NC(=O)CNC(C)=O)c2ccc(C)cc2)cc1 (stereo unspecified) = > 195 µM (not active)
4) Nc1nc(CSc2ncn(-c3ccccc3)n2)cs1 = > 195 µM (not active)
5) CN1CCN(CC(=O)n2c3c(c4ccccc42)CCCC3)CC1 = > 195 µM (not active)
6) Cc1ccccc1CN1CCN(C(=O)CC(C)C)CC1 = > 195 µM (not active)
7) Oc1ccccc1-c1nnc(-c2ccc(C(F)(F)F)cc2)o1 = > 195 µM (not active)
8) Fc1ccc(-c2cc(-c3ccccc3)nc(-n3cccn3)n2)cc1 = > 195 µM (not active)
9) COc1cccc(CN2CCC(n3nccc3NC(=O)CCCc3ccccc3)CC2)c1O = > 195 µM (not active)
10) CCOC(=O)N1CCC(NC(=O)CN2C(=O)CSc3nc(C)cc(C)c32)CC1 = > 195 µM (not active)
11) O=S(=O)(Nc1c(O)ccc2ccccc12)c1cccc2ccccc12 = 15.7 µM (active)
